# measurement protocol: acid dissociation constant pKa by alkali titration method
# Assay type: physicochemical
# setup conditions: pKa of conjugate acid; 25° C., mixed solvent tetrahydrofuran 60 ml/water 40 ml; read-out: Chelating agent B pKa of basic group
readout kind: pKa

CC(O)CN(CCN(CC(C)O)CC(C)O)CCN(CC(C)O)CC(C)O (stereo not drawn) :: 8.4

I. NCCNCCNCCN
II. ONc1nc(NC2CCCCC2)nc(NC2CCCCC2)n1
Req: Select one: I or II . Criterion: greater recorded pKa. Returns: label corresponding to the selected item.
Resp: II
